# target.or.system: T1, human TIGIT-Fc (human, UniProt Q495A1 22-141, limits assumed)
# T1 construct: not shown: Fc; not described
# T1 sequence (looked up): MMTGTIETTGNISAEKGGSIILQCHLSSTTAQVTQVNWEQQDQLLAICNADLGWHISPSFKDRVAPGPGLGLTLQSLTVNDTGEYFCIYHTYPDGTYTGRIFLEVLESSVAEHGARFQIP
# method: CD155 competition ELISA, single point; note: test concentration or dose not given here
Readings of OD (450 nm) for the listed binders
Give just the numeric value; OD need not be written.

Recorded OD (450 nm), per entry:
TIGIT-SC102 (Fc fusion, VHH-Fc) VHH: EVQLVESGGGLVQPGGSLRLSCAASGSTFSKHHAMGWFRQAPGKEREFVAAIRWSGGNTYYADSVKGRFTISADNSKNTAYLQMNSLKPEDTAVYYCARWYSSSGDYYYMDVWGQGTLVTVSS has a reported OD (450 nm) of 0.311

TIGIT-SC97 (Fc fusion, VHH-Fc) VHH: EVQLVESGGGLVQPGGSLRLSCAASGTAASFNPMGWFRQAPGKEREFVAAISWSGGSTNYADSVKGRFTISADNSKNTAYLQMNSLKPEDTAVYYCVTYSAYDFRNAWGQGTLVTVSS has a reported OD (450 nm) of 0.111

TIGIT-SC61 (Fc fusion, VHH-Fc) VHH: EVQLVESGGGLVQPGGSLRLSCAASGNTFSGGFMGWFRQAPGKEREWVASVLRGGYTWYADSVKGRFTISADNSKNTAYLQMNSLKPEDTAVYYCTRGDTAMATFDYWGQGTLVTVSS has a reported OD (450 nm) of 0.343

TIGIT-SC192 (Fc fusion, VHH-Fc) VHH: EVQLVESGGGLVQPGGSLRLSCAASGFTFSVYWMGWFRQAPGKEREFVAAISRSGTLKEYADSVKGRFTISADNSKNTAYLQMNSLKPEDTAVYYCARGSGWPKIHFDYWGQGTLVTVSS has a reported OD (450 nm) of 0.487

TIGIT-SC44 (Fc fusion, VHH-Fc) VHH: EVQLVESGGGLVQPGGSLRLSCAASGSIFGLGAMGWFRQAPGKERELVAITWGGSTTLYADSVKGRFTISADNSKNTAYLQMNSLKPEDTAVYYCATDQGQWLFDFWGQGTLVTVSS has a reported OD (450 nm) of 0.359

More entries:
TIGIT-SC157 (Fc fusion, VHH-Fc) VHH: EVQLVESGGGLVQPGGSLRLSCAASGFTFSPSWMGWFRQAPGKEREWVASVLRGGYTWYADSVKGRFTISADNSKNTAYLQMNSLKPEDTAVYYCTTEGYDFWSGYYDYWGQGTLVTVSS has a reported OD (450 nm) of 0.414
